- PROTOCOL NOTES: Acute toxicity in po dosed rat measured after 30 mins to 4 hrs
- Type: organism-based
- TEST SETTINGS: in vivo, time 0.5-4 hrs
ATTRIBUTE MEASURED: LD50 (mg/kg)
Give your result in mg/kg as a bare value.

*Q* Look at this compound and give its reported LD50. Nc1nc(NC2=NC(c3ccccc3)=CC(c3cccc([N+](=O)[O-])c3)O2)nc(N2CCOCC2)n1 (stereo unspecified)
*A* 2000
